Tested on: HEK-293T
procedure_summary: Multiplex assay against HEK293T
Format: toxicity, cell-based
condition_details: human, 48 h, 1 µM, compound concentration 1 uM, replicate 1
Is Population Pyknosed Nuclei (%) at least 8%? Then True. If not, False.

See these solved cases before continuing.
Cc1sc2c(c1C)C(c1ccc(Cl)cc1)=N[C@H](CC(=O)OC(C)(C)C)c1nnc(C)n1-2 :: False
Cc1cc(=O)n(C)c2cc(N3C(=O)CC[C@H](NS(=O)(=O)CC(C)C)[C@H]3c3ccc(Cl)cc3)ccc12 :: False
S=C(NCCCc1c[nH]cn1)NCCCN(Cc1ccc(Cl)c(Cl)c1)c1ccc(Br)cn1 :: True

Check this molecule for Population Pyknosed Nuclei (%) at or above 8%: N[C@](CC1c2ccccc2Oc2ccccc21)(C(=O)O)[C@H]1C[C@@H]1C(=O)O
False

Does the molecule CN1CCC(C(=O)c2cccc(NC(=O)c3c(F)cc(F)cc3F)n2)CC1 have recorded Population Pyknosed Nuclei (%) that is 8% or more?
False

Dear colleague, could you confirm whether Nc1nc(-c2ccco2)c2cnn(Cc3ccccc3F)c2n1 has Population Pyknosed Nuclei (%) at or above 8%?
True

* * *

System: U2OS
procedure_summary: Multiplex assay against U2OS
Format: toxicity, cell-based
condition_details: human, 24 h, 1 µM, compound concentration 1 uM, replicate 1
measured_attribute: Population Normal (%)
Report as a plain number; the unit % is understood.

Look over these answered cases.
Cc1c(Cc2ccc3ccccc3n2)c2cc(F)ccc2n1CC(=O)O :: 98
OCCCNc1cc(-c2ccnc(Nc3cccc(Cl)c3)n2)ccn1 :: 92
O=C(O)CCC/C=C\CC1C(O)CC(O)C1/C=C/C(O)COc1cccc(Cl)c1 (centres undefined) :: 98
COc1c(Nc2ccc(S(C)(=O)=O)nc2C)ncnc1OC1CCN(C(=O)OC(C)C)CC1 :: 96
Cn1cc(C(=O)OCC2CCN(CCNS(C)(=O)=O)CC2)c2ccccc21 :: 97
CN1CCC(C(=O)c2cccc(NC(=O)c3c(F)cc(F)cc3F)n2)CC1 :: 97

Suppose we examine the compound C[C@@H]1CC(=O)Nc2cccc(-c3ccc4c(c3)c(-c3cnn(C)c3)nn4C)c2N1 ; what Population Normal (%) value has been reported?
97

Reported Population Normal (%), compound COc1ccc2c(c1OCc1ccccc1)C[C@@H](C(=O)O)N(C(=O)C(c1ccccc1)c1ccccc1)C2 : ____
99

Population Normal (%) for COCCn1c(C)c(C)s/c1=N\C(=O)C1C(C)(C)C1(C)C ?
99

* * *

The following compounds are shown together with reported Population Pyknosed Nuclei (%) values.
Tested on: U2OS
procedure_summary: Multiplex assay against U2OS
Assay type: toxicity, cell-based
condition_details: human, 48 h, 10 µM, compound concentration 10 uM, replicate 2
Use % as the unit, but write only the number.

CC(C)(C)c1ccc(CSc2cnn(C(C)(C)C)c(=O)c2Cl)cc1 :: 13
COc1cc2nc(N3CCN(C(=O)COc4c(OC)cccc4C(C)C)CC3)nc(N)c2cc1OC.Cl.Cl :: 51

Which Population Pyknosed Nuclei (%) is listed for CC(C)(O)C(=O)N1CCN(c2ccc(C(F)(F)F)c(C3=C(c4c[nH]c5ccccc45)C(=O)NC3=O)c2)CC1 ?
41

Which Population Pyknosed Nuclei (%) is listed for Nc1nc(-c2ccco2)c2cnn(Cc3ccccc3F)c2n1 ?
7

Param item = S=C(NCCCc1c[nH]cn1)NCCCN(Cc1ccc(Cl)c(Cl)c1)c1ccc(Br)cn1 ; retrieve measured Population Pyknosed Nuclei (%).
33

Which Population Pyknosed Nuclei (%) reading was recorded for the compound Cl.Cl.OCCOCCN1CCN(C(c2ccccc2)c2ccc(Cl)cc2)CC1 (stereo not drawn) [HYDROXYZINE HYDROCHLORIDE] ?
8

Endpoint output: Population Pyknosed Nuclei (%) of COc1cc(C(=O)N2CC[C@@H](O)[C@@H](N)C2)cc2nc(-c3cc4ccccc4n3CC3CC3)n(C)c12.Cl . Value?
34

GET /values?readout=Population Pyknosed Nuclei (%)&item= CCC(=O)OCC(=O)[C@@]1(OC(=O)CC)[C@@H](C)C[C@H]2[C@@H]3CCC4=CC(=O)C=C[C@]4(C)[C@@]3(Cl)[C@@H](O)C[C@@]21C [BECLOMETHASONE DIPROPIONATE]
13
